- study_target: Dual 3',5'-cyclic-AMP and -GMP phosphodiesterase 11A (Homo sapiens)
- Sequence (Q9HCR9 whole entry): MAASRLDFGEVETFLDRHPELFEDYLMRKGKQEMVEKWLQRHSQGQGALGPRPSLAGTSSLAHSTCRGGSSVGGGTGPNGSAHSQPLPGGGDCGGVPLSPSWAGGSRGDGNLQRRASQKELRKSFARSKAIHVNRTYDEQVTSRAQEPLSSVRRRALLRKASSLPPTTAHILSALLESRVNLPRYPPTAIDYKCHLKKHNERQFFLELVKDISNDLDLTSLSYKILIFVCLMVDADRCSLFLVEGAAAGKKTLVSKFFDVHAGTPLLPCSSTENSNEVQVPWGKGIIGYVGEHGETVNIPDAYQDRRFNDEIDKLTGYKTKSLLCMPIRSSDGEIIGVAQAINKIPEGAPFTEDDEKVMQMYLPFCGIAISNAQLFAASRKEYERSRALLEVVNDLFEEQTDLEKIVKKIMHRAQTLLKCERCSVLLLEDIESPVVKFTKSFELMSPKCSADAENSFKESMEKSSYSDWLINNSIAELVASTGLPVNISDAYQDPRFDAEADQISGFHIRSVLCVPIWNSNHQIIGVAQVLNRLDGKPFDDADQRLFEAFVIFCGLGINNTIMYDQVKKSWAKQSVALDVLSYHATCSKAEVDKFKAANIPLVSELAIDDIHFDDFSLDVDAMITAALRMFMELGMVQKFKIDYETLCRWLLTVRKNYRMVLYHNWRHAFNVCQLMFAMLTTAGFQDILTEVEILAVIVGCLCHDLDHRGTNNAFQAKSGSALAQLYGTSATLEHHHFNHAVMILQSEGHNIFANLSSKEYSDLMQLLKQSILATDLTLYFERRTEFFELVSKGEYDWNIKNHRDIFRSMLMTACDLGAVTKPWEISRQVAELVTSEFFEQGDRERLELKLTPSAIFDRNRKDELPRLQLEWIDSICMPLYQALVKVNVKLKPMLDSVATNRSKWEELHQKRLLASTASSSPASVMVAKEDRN
- experiment_summary: Inhibition of human recombinant PDE11A expressed in Sf9 cells by scintillation proximity assay
pIC50: −log10 of the molar value.
measured_parameter: pIC50

Request: What reported pIC50 corresponds to Cc1nc2ccc(CN3CCOCC3)cc2n2c(-c3ccccc3Cl)nnc12 on Dual 3',5'-cyclic-AMP and -GMP phosphodiesterase 11A (Homo sapiens)?
Result: < 5.00

###

- experiment_summary: Plasma concentration in Sprague-Dawley rat at 10 mg/kg, sc after 1 hr
- Assay type: ADME, organism-based
- Design: dose 10 mg/kg, route subcutaneous
measured_parameter: concentration at 1 h (ng/mL)
Answer format: numeric, ng/mL implied, no suffix.

Example cases with answers are listed next.
>  <given_smiles>
CCNC(=O)c1ccc2nc(C)c3nnc(-c4cnccc4C)n3c2c1

>  <assay_value>
2800

$$$$
>  <given_smiles>
CCNCc1ccc2nc(C)c3nnc(-c4ccccc4Cl)n3c2c1

>  <assay_value>
845

$$$$

Here is the next item to consider.
Request: Name the reported concentration at 1 h value associated with the compound Cc1nc2ccc(CN3CCOCC3)cc2n2c(-c3ccccc3Cl)nnc12
Result: 299

###

- study_target: cGMP-specific 3',5'-cyclic phosphodiesterase (Homo sapiens)
- experiment_summary: Inhibition of human recombinant PDE5A expressed in Sf9 cells by scintillation proximity assay
measured_parameter: IC50

Request: Request the reported IC50 associated with Cc1nc2ccc(CN3CCOCC3)cc2n2c(-c3ccccc3Cl)nnc12
Result: > 10 µM

###

- study_target: High affinity cGMP-specific 3',5'-cyclic phosphodiesterase 9A (Homo sapiens, UniProt O76083)
- Sequence (O76083 whole entry): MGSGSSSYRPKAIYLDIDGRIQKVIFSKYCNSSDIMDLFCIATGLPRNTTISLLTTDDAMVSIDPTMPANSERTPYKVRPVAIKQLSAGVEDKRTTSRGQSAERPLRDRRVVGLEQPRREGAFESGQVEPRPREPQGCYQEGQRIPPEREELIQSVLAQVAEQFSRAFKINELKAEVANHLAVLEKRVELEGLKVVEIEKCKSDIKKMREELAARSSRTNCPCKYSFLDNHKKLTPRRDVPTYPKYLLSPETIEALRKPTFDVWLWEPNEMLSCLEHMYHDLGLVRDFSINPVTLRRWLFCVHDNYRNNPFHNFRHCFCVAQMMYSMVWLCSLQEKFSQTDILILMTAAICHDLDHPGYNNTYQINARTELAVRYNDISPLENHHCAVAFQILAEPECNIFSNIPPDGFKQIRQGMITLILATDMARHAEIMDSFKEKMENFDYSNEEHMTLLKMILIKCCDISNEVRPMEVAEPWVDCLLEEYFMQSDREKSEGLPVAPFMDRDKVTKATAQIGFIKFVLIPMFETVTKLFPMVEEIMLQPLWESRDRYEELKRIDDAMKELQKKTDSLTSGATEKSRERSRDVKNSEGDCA
- experiment_summary: Inhibition of human recombinant PDE9A expressed in Sf9 cells by scintillation proximity assay
measured_parameter: IC50

Request: Entry under review: Cc1nc2ccc(CN3CCOCC3)cc2n2c(-c3ccccc3Cl)nnc12 . Reported IC50?
Result: > 10 µM

###

- experiment_summary: Drug level in Wistar rat brain at 10 mg/kg, po after 1 hr
- Assay type: ADME, organism-based
- Parameters: dose 10 mg/kg, route oral
- condition_description: read-out: Drug uptake
measured_parameter: concentration at 1 h (ng/g)
The reply should be a number in ng/g, with the unit left off.

Request: Look up concentration at 1 h: CCNC(=O)c1ccc2nc(C)c3nnc(-c4ccccc4Cl)n3c2c1
Result: 185
